# SYSTEM: IDH2 R140Q (Homo sapiens (Human), UniProt P48735, R140Q)
# Sequence (P48735 40-452 R140Q): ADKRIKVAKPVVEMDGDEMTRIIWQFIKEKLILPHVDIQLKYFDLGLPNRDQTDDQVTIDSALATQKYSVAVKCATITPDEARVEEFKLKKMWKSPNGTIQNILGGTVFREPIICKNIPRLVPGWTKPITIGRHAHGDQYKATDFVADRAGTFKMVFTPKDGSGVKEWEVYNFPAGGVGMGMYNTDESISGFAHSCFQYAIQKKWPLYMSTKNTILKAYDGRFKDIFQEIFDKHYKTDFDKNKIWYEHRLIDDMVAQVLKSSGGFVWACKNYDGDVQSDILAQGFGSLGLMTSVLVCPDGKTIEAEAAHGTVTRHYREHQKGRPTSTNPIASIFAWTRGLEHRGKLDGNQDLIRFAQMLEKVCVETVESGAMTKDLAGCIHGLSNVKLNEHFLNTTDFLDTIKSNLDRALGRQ
# TEST_PROTOCOL: In vitro assay for IDH2m R140Q inhibitors, cofactor depletion assay, 16 hr preincubation with NADPH/NADP
# Type: biochemical
# CONDITIONS: read-out: IDH2 R140Q 16 hr NADPH/NADP IC50; 16 hrs preincubation with enzyme, 5 uM NADPH and 750 uM NADP
PARAMETER: IC50

Use the examples below as a reference point.
CC(C)Nc1nc(Nc2ccnc(C(C)(F)F)c2)nc(-c2nccc(C(F)(F)F)n2)n1 [Compound 298]    0.05 to 0.1 µM
CC(C)(O)CNc1nc(Nc2cc(F)cc(C#N)c2)nc(-c2cccc(C(F)(F)F)n2)n1 [Compound 244]    0.05 to 0.1 µM
CC(C)(C)Nc1nc(Nc2cc(F)cc(C#N)c2)nc(-c2nccc(C(F)(F)F)n2)n1 [Compound 245]    < 0.05 µM
C[C@@H](Nc1nc(Nc2ccnc(C3(C#N)CC3)c2)nc(-c2cccc(Cl)n2)n1)C1CC1 [Compound 167]    < 0.05 µM
C[C@@H](Nc1nc(NC(C2CC2)C2CC2)nc(-c2cccc(C(F)(F)F)n2)n1)C1CC1 [Compound 193]    < 0.05 µM

The recorded IC50 for CC(C)(C#N)CNc1nc(Nc2ccnc(C(C)(F)F)c2)nc(-c2cccc(C(F)(F)F)n2)n1 [Compound 267] is 0.05 to 0.1 µM

The recorded IC50 for C[C@@H](Nc1nc(NCCOc2ccccc2)nc(-c2cccc(C(F)(F)F)n2)n1)C1CC1 [Compound 246] is < 0.05 µM

The recorded IC50 for CC(C)(O)CNc1nc(Nc2cc(F)cc(F)c2)nc(-c2nccc(C(F)(F)F)n2)n1 [Compound 325] is 0.05 to 0.1 µM

---

# SYSTEM: IDH2 R140Q (Homo sapiens (Human), UniProt P48735, R140Q)
# TEST_PROTOCOL: In vitro assay for IDH2m R140Q inhibitors, cofactor depletion assay
# Type: biochemical
# CONDITIONS: IDH2 R140Q enzyme
Listed here: items and their measured IC50.

N#CC1(c2cc(Nc3nc(NC4CCC(F)(F)C4)nc(-c4nccc(C(F)(F)F)n4)n3)ccn2)CC1 (stereo not shown)    < 50 nM
Clc1cccc(-c2nc(NC3[C@H]4COC[C@@H]34)nc(NC3[C@H]4COC[C@@H]34)n2)n1 (stereo partly shown)    > 1000 nM
C[C@@H](Nc1nc(Nc2ccnc(C#N)c2)nc(-n2ccc(C(F)(F)F)n2)n1)C(F)(F)F    < 50 nM
FC1(F)CCC(Nc2nc(Nc3ccnc(C(F)(F)F)c3)nc(-c3nc(C(F)(F)F)cs3)n2)C1 (stereo not shown)    < 50 nM
CN1CCC(Nc2nc(NC3CCC(F)(F)C3)nc(-c3cccc(C(F)(F)F)n3)n2)C1 (stereo not shown)    > 1000 nM
CC[C@H](Nc1nc(N[C@@H](CC)C(F)(F)F)nc(-c2cncc(C(F)(F)F)n2)n1)C(F)(F)F    < 50 nM

As a next step, examine the compound that follows.
The recorded IC50 for FC1(F)CCC(Nc2nc(Nc3ccnc(-c4ccccc4)c3)nc(-c3cccc(C(F)(F)F)n3)n2)C1 (stereo not shown) is < 50 nM

---

# Test system: HT1080 cells
# TEST_PROTOCOL: Cellular assay for IDH1m R132C inhibitors, 2-HG by LC-MS in HT1080 cells
# Format: cell-based
# CONDITIONS: Homo sapiens, HT-1080
pIC50: −log10 of the molar value.
Listed here: items and their measured pIC50.

Use the examples below as a reference point.
FC1(F)CCC(Nc2nc(NC3CCC(F)(F)CC3)nc(-c3cncc(C(F)(F)F)n3)n2)CC1 [Compound 160]    > 7.30
FC1(F)CC[C@H](Nc2nc(N[C@H]3CCC(F)(F)C3)nc(-c3cccc(C(F)(F)F)n3)n2)C1 [Compound 118]    > 7.30
FC1(F)CCCC1Nc1nc(NC2CCCC2(F)F)nc(-c2cccc(Cl)n2)n1 (stereo not drawn) [Compound 157]    > 7.30
N#Cc1cc(F)cc(Nc2nc(NC3CC(F)(F)C3)nc(-c3cccc(C(F)(F)F)n3)n2)c1 [Compound 154]    6.00 to 7.00

The recorded pIC50 with HT1080 cells for Nc1ccc(F)c(-c2nc(Nc3cc(F)cc(F)c3)nc(NC3CCC(F)(F)C3)n2)n1 (stereo not drawn) [Compound 153] was 7.00 to 7.30

---

# SYSTEM: IDH1 wt/IDH1 R132C heterodimer (Homo sapiens (Human), UniProt O75874, R132C)
# Sequence (O75874 whole entry R132C): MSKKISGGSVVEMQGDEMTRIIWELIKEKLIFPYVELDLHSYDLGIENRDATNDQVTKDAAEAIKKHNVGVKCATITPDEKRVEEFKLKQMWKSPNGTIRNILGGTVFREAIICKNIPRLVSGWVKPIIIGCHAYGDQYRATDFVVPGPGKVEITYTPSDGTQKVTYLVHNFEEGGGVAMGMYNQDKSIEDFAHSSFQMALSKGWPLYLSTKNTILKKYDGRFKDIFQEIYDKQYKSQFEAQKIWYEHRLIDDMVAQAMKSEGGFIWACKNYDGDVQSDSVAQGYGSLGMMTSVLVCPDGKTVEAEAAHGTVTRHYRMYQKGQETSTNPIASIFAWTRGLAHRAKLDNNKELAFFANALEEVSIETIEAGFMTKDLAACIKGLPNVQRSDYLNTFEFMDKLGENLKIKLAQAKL
# Sequence (O75874 whole entry, stated change not applied): as the sequence (O75874 whole entry R132C) above, with C132R counted along it
# TEST_PROTOCOL: In vitro assay for IDH1m R132C inhibitors, IDH1 wt/IDH1 R132C heterodimer, NADPH depletion (diaphorase/resazurin)
# CONDITIONS: NADPH/NADP
PARAMETER: IC50

Use the examples below as a reference point.
FC1(F)CCC(Nc2nc(NC3CCOCC3)nc(-c3cccc(C(F)(F)F)n3)n2)CC1    100 to 1000 nM
N#Cc1cc(F)cc(Nc2nc(NC3CCC(F)(F)C3)nc(-c3cccc(C(F)(F)F)n3)n2)c1 (stereo not shown)    < 50 nM
CC(Nc1nc(N[C@H](C)C2CC2)nc(-c2cccc(C(F)(F)F)n2)n1)C(F)(F)F (stereo partly shown)    < 50 nM
FC(F)c1cccc(-c2nc(NC3CC(F)(F)C3)nc(NC3CC(F)(F)C3)n2)n1    < 50 nM
CC(Nc1nc(Nc2ccnc(C3(C#N)CC3)c2)nc(-c2cccc(Cl)n2)n1)C(F)(F)F (stereo not shown)    < 50 nM
FC1(F)CCC(Nc2nc(NC3CCC(F)(F)CC3)nc(-n3ccc(C(F)(F)F)n3)n2)CC1    < 50 nM

As a next step, examine the compound that follows.
The recorded IC50 with IDH1 wt/IDH1 R132C heterodimer (Homo sapiens (Human), UniProt O75874, R132C) for N#CC1(c2cc(Nc3nc(NC4CC5(C4)CC(F)(F)C5)nc(-c4cccc(C(F)(F)F)n4)n3)ccn2)CC1 was 50 to 100 nM

---

# Tested on: U87MG pLVX-IDH2 R140Q-neo cells
# TEST_PROTOCOL: U87MG pLVX-IDH2 R140Q-neo cell based assay, 2-HG by LC-MS
# CONDITIONS: Homo sapiens, U-87 MG
PARAMETER: IC50

Use the examples below as a reference point.
FC1(F)CCC(Nc2nc(NC3CCC(F)(F)CC3)nc(-c3ccnc(C(F)(F)F)n3)n2)CC1    100 to 1000 nM
FC(F)c1cncc(-c2nc(NC3CCC(F)(F)CC3)nc(NC3CCC(F)(F)CC3)n2)n1    < 50 nM
CC(C)(C#N)CNc1nc(Nc2ccnc(C(C)(F)F)c2)nc(-c2cccc(C(F)(F)F)n2)n1    < 50 nM

As a next step, examine the compound that follows.
The recorded IC50 for FC(F)c1cccc(-c2nc(NC3CCC(F)(F)CC3)nc(NC3CCC(F)(F)CC3)n2)n1 is < 50 nM

---

Listed here: items and their measured IC50.
# SYSTEM: IDH1 wt/IDH1 R132H heterodimer (Homo sapiens (Human), UniProt O75874, R132H)
# Sequence (O75874 whole entry R132H): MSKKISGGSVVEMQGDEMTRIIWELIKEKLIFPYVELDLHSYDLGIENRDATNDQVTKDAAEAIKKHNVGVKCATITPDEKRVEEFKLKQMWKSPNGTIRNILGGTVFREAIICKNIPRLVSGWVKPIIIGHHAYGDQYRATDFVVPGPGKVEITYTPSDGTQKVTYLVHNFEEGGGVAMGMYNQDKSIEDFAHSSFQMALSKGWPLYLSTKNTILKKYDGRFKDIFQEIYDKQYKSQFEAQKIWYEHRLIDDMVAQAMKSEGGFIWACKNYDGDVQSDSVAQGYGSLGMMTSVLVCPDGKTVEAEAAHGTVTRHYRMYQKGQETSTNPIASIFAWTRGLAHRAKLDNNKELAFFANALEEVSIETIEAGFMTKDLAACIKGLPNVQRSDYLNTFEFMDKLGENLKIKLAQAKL
# Sequence (O75874 whole entry, stated change not applied): as the sequence (O75874 whole entry R132H) above, with H132R counted along it
# TEST_PROTOCOL: In vitro assay for IDH1m R132H inhibitors, IDH1 wt/IDH1 R132H heterodimer, NADPH depletion (diaphorase/resazurin)
# Format: biochemical
# CONDITIONS: IDH1 wt/R132H heterodimer, NADPH/NADP, not saturated; read-out: IDH1 wt/R132H NADPH/NADP IC50 not saturated

Use the examples below as a reference point.
FC1(F)CCC(Nc2nc(NC3CCC(F)(F)C3)nc(-c3ccnc(C(F)(F)F)n3)n2)C1 (stereo not shown)    < 50 nM
FC1(F)CC[C@@H](Nc2nc(Nc3ccnc(C(F)(F)F)c3)nc(-c3cccc(C(F)(F)F)n3)n2)C1    < 50 nM
CCC(Nc1nc(NC(CC)C(F)(F)F)nc(-c2cccc(Cl)n2)n1)C(F)(F)F (stereo not shown)    < 50 nM

As a next step, examine the compound that follows.
The recorded IC50 for C[C@H](CO)Nc1nc(N[C@H](C)C2CC2)nc(-c2cccc(C(F)(F)F)n2)n1 is 100 to 1000 nM

---

# Test system: HT1080 cells
# TEST_PROTOCOL: Cellular assay for IDH1m R132C inhibitors, 2-HG by LC-MS in HT1080 cells
# Assay type: cell-based
# CONDITIONS: Homo sapiens, HT-1080
PARAMETER: IC50

The recorded IC50 for N#Cc1cc(F)cc(Nc2nc(NC3CC(F)(F)C3)nc(-c3nc(C(F)(F)F)cs3)n2)c1 is 50 to 100 nM

The recorded IC50 for CC(C)[C@H](C)Nc1nc(N[C@@H](C)C(C)C)nc(-c2cccc(C(F)(F)F)n2)n1 is < 50 nM

The recorded IC50 for FC1(F)CC(Nc2nc(Nc3ccnc(C(F)(F)F)c3)nc(-c3nc(C(F)(F)F)cs3)n2)C1 is 50 to 100 nM

The recorded IC50 for N#Cc1cc(Nc2nc(NC3CC(F)(F)C3)nc(-n3ccc(C(F)(F)F)n3)n2)ccn1 is 100 to 1000 nM
